All values here come from patent EP4471049A1.

hIL-23 (pSTAT3) antagonist % inhibition for assorted binders
target.of.assay: T1, human IL-23R endogenously expressed on DB cells (human, UniProt Q5VWK5 24-629)
T1 sequence (looked up): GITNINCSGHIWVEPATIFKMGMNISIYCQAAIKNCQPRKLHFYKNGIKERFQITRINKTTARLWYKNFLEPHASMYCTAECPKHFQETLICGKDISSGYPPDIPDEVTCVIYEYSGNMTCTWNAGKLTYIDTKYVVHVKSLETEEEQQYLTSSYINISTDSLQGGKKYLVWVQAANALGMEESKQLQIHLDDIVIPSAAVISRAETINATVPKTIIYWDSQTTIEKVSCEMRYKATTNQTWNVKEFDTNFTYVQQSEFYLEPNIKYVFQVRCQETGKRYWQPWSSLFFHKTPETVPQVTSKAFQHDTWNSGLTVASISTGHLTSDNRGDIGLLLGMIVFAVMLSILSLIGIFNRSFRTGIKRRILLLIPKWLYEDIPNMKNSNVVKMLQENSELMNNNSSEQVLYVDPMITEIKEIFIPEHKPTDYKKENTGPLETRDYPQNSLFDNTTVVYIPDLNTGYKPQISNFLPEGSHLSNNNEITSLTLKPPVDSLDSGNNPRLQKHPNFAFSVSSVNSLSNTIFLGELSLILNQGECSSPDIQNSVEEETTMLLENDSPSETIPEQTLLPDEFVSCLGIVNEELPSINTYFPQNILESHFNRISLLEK
test: cell-based or functional assay
*1 amine or outer side, *2 acyl side, *3 side chain or, on linkers, in order; H or OH if unused. Bridges are numbered along the chain shown (N, C = ends). Where no end group is shown, it is not given here. [ ]: non-standard residue; d: D form. 4‑Aminomethyl‑phenylacetyl = 4-aminomethyl-phenylacetyl unit, its amine closes the lactam, O=C(Cc1ccc(CN[*:1])cc1)[*:2]; 2Nal = N[C@@H](Cc1ccc2ccccc2c1)C(=O)O; AEF = NCCOc1ccc(C[C@H](N)C(=O)O)cc1; 3Pal = N[C@@H](Cc1cccnc1)C(=O)O; αMeL = CC(C)C[C@](C)(N)C(=O)O; Dab = NCC[C@H](N)C(=O)O
# number only, unit % dropped from output

{"binder": "[4‑Aminomethyl‑phenylacetyl]SEWQ[Dab][AEF][2Nal][αMeL]E[Dab]H[3Pal]-NH2 (lactam (positions not given here); lactam 3-6; not fully specified (bridges)) [Compound 12]", "measure.name": "hIL-23 (pSTAT3) antagonist % inhibition", "recorded.result": 100}

Problem: Entry [4‑Aminomethyl‑phenylacetyl]SEWF[Dab][AEF][2Nal][αMeL]E[Dab][3Pal]-NHMe (lactam N-10, 3-6; SMILES CNC(=O)[C@H](Cc1cccnc1)NC(=O)[C@H](CCN)NC(=O)[C@@H]1CCC(=O)NCc2ccc(cc2)CC(=O)N[C@@H](CO)C(=O)N[C@H]2CCC(=O)NCC[C@H](NC(=O)[C@H](Cc3ccccc3)NC(=O)[C@H](Cc3c[nH]c4ccccc34)NC2=O)C(=O)N[C@@H](Cc2ccc(OCCN)cc2)C(=O)N[C@@H](Cc2ccc3ccccc3c2)C(=O)N[C@@](C)(CC(C)C)C(=O)N1) [Compound 23] needs its hIL-23 (pSTAT3) antagonist % inhibition filled in; supply it.
Result: 99

Problem: Entry [4‑Aminomethyl‑phenylacetyl]SEWA[Dab][AEF][2Nal][αMeL]E[Dab][3Pal]-NHMe (lactam N-10, 3-6; SMILES CNC(=O)[C@H](Cc1cccnc1)NC(=O)[C@H](CCN)NC(=O)[C@@H]1CCC(=O)NCc2ccc(cc2)CC(=O)N[C@@H](CO)C(=O)N[C@H]2CCC(=O)NCC[C@H](NC(=O)[C@H](C)NC(=O)[C@H](Cc3c[nH]c4ccccc34)NC2=O)C(=O)N[C@@H](Cc2ccc(OCCN)cc2)C(=O)N[C@@H](Cc2ccc3ccccc3c2)C(=O)N[C@@](C)(CC(C)C)C(=O)N1) [Compound 22] needs its hIL-23 (pSTAT3) antagonist % inhibition filled in; supply it.
Result: 101
